# TARGET_SYSTEM: Muscarinic acetylcholine receptor M4 (Homo sapiens)
# Sequence (whole entry): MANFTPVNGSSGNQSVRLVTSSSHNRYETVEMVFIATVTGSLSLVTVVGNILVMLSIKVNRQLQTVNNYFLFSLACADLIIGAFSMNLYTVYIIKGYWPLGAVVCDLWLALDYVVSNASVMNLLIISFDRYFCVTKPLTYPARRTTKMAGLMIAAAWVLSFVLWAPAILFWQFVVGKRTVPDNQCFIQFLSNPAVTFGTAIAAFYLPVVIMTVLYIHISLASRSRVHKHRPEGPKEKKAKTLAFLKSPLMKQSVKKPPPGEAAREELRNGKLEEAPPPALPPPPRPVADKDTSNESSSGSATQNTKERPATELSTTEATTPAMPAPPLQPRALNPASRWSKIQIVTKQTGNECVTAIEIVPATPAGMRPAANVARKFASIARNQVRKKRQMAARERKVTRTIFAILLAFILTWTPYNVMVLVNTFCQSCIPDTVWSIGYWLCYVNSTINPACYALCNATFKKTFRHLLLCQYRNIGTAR
# ASSAY_COMMENT: Agonist activity at human muscarinic M4 receptor expressed in CHO cells after 30 mins by GTPgamma35S binding assay relative to oxotremorine-M
# Assay type: functional, cell-based
# Efficacy per entry

[
  {
    "LINE_NOTATION": "C/C(=N\\c1ccc2c(c1)[C@@H](NC(=O)c1ccc(Cl)cc1)[C@H](O)C2)N(C)Cc1ccc(F)cc1",
    "OPERATOR": "=",
    "Efficacy (%)": 42.8
  },
  {
    "LINE_NOTATION": "C/C(=N\\c1ccc2c(c1)[C@@H](NC(=O)c1ccc(Br)cc1)[C@H](O)C2)N(C)CCc1ccc(F)cc1",
    "OPERATOR": "<",
    "Efficacy (%)": 20
  },
  {
    "LINE_NOTATION": "C/C(=N\\c1ccc2c(c1)[C@@H](NC(=O)c1ccc(-c3ccccc3)cc1)[C@H](O)C2)N(C)Cc1ccc(F)cc1",
    "OPERATOR": "=",
    "Efficacy (%)": 29.7
  },
  {
    "LINE_NOTATION": "C/C(=N\\c1ccc2c(c1)[C@@H](NC(=O)c1ccc(F)cc1)[C@H](O)C2)N(C)Cc1ccc(F)cc1",
    "OPERATOR": "=",
    "Efficacy (%)": 28.4
  },
  {
    "LINE_NOTATION": "C/C(=N\\c1ccc2c(c1)[C@@H](NC(=O)c1ccc(C(F)(F)F)cc1)[C@H](O)C2)N(C)Cc1ccc(F)cc1",
    "OPERATOR": "=",
    "Efficacy (%)": 30.8
  },
  {
    "LINE_NOTATION": "COc1ccc(N/C(C)=N/c2ccc3c(c2)[C@@H](NC(=O)c2ccc(Br)cc2)[C@H](O)C3)cc1",
    "OPERATOR": "<",
    "Efficacy (%)": 20
  },
  {
    "LINE_NOTATION": "COc1ccc(C(=O)N[C@@H]2c3cc(/N=C(\\C)N(C)Cc4ccc(F)cc4)ccc3C[C@H]2O)cc1",
    "OPERATOR": "<",
    "Efficacy (%)": 20
  },
  {
    "LINE_NOTATION": "C/C(=N\\c1ccc2c(c1)[C@@H](NC(=O)c1ccc(Br)cc1)[C@H](O)C2)NCc1ccccc1F",
    "OPERATOR": "=",
    "Efficacy (%)": 25.7
  },
  {
    "LINE_NOTATION": "C/C(=N\\c1ccc2c(c1)[C@@H](NC(=O)c1ccc(Br)cc1)[C@H](O)C2)NCc1ccc(F)cc1",
    "OPERATOR": "=",
    "Efficacy (%)": 33.5
  },
  {
    "LINE_NOTATION": "COc1ccc(CN/C(C)=N/c2ccc3c(c2)[C@@H](NC(=O)c2ccc(Br)cc2)[C@H](O)C3)cc1",
    "OPERATOR": "<",
    "Efficacy (%)": 20
  },
  {
    "LINE_NOTATION": "C/C(=N\\c1ccc2c(c1)[C@@H](NC(=O)c1ccc(Br)cc1)[C@H](O)C2)N(C)c1ccc(F)cc1",
    "OPERATOR": "<",
    "Efficacy (%)": 20
  },
  {
    "LINE_NOTATION": "C/C(=N\\c1ccc2c(c1)[C@@H](NC(=O)c1ccc(Br)cc1)[C@H](O)C2)Nc1ccc(F)cc1",
    "OPERATOR": "=",
    "Efficacy (%)": 23.1
  },
  {
    "LINE_NOTATION": "C/C(=N\\c1ccc2c(c1)[C@@H](NC(=O)c1ccc(C)cc1)[C@H](O)C2)N(C)Cc1ccc(F)cc1",
    "OPERATOR": "=",
    "Efficacy (%)": 41.5
  },
  {
    "LINE_NOTATION": "COc1cccc(CN/C(C)=N/c2ccc3c(c2)[C@@H](NC(=O)c2ccc(Br)cc2)[C@H](O)C3)c1",
    "OPERATOR": "<",
    "Efficacy (%)": 20
  },
  {
    "LINE_NOTATION": "C/C(=N\\c1ccc2c(c1)[C@@H](NC(=O)c1ccc(Br)cc1)[C@H](O)C2)NCCc1ccc(F)cc1",
    "OPERATOR": "<",
    "Efficacy (%)": 20
  },
  {
    "LINE_NOTATION": "O=C(N[C@@H]1c2cc(/N=C(/Nc3ccc(F)cc3)C(F)(F)F)ccc2C[C@H]1O)c1ccc(Br)cc1",
    "OPERATOR": "<",
    "Efficacy (%)": 20
  },
  {
    "LINE_NOTATION": "C/C(=N\\c1ccc2c(c1)[C@@H](NC(=O)c1ccc(Br)cc1)[C@H](O)C2)N(C)Cc1ccc(F)cc1",
    "OPERATOR": "=",
    "Efficacy (%)": 34.3
  },
  {
    "LINE_NOTATION": "COc1ccc(CCN/C(C)=N/c2ccc3c(c2)[C@@H](NC(=O)c2ccc(Br)cc2)[C@H](O)C3)cc1",
    "OPERATOR": "=",
    "Efficacy (%)": 29.9
  },
  {
    "LINE_NOTATION": "COc1ccccc1CN/C(C)=N/c1ccc2c(c1)[C@@H](NC(=O)c1ccc(Br)cc1)[C@H](O)C2",
    "OPERATOR": "<",
    "Efficacy (%)": 20
  },
  {
    "LINE_NOTATION": "C/C(=N\\c1ccc2c(c1)[C@@H](NC(=O)c1ccc(Br)cc1)[C@H](O)C2)NCc1cccc(F)c1",
    "OPERATOR": "=",
    "Efficacy (%)": 33.4
  }
]
